read-out: Potassium channel subfamily K member 1 (KCNK1), KCNK1 (gene 3775); experiment: LTEA_HepaRG_KCNK1: Life Technologies and Expression Analysis (LTEA) Assay for Potassium channel subfamily K member 1 (KCNK1) using HepaRG (AID 2283511); conditions: mRNA level, 48 h; actives raise or lower the signal
Calls of active or inactive are those of the source. The calls were made as follows: active = hit-call score of the fitted dose curve at least 0.9, where 1 is the maximum; inactive = score below 0.9.
Classes used: true (1) = active, false (0) = inactive

COMPOUND | GROUP LABEL
CS(=O)(=O)c1ccc([C@@H](C[C@H]2CCC(=O)C2)C(=O)Nc2cnccn2)cc1Cl | true (1)
CC(C)COC(=O)CCCCC(=O)OCC(C)C | false (0)
O=Cc1ccccc1C=O | false (0)
NCCOCCOCCN | false (0)
COC(=O)[C@H]1[C@H]2C[C@@H]3c4[nH]c5cc(OC)ccc5c4CCN3C[C@H]2C[C@@H](OC(=O)c2cc(OC)c(OC)c(OC)c2)[C@@H]1OC | false (0)
S=c1[nH]c2ccccc2s1 | false (0)
CC(C)(O)c1ccc(CNC(=O)c2cccnc2Oc2ccc(F)cc2)cc1 | false (0)
CCCCCCCC(=O)OC | false (0)
CC(=O)OC1CC(C)OC(C)O1 (stereo not given) | false (0)
CCCC[C@H]1CN(CC2CCOCC2)C(=O)OC12CCN(C1(C)CCN(C(=O)c3c(C)ncnc3C)CC1)CC2 | false (0)
O=C(O)c1cccnc1 | false (0)
CN(C)CCCN(C)CCCN(C)C | false (0)
O=NO | false (0)
NC1CCCCC1 | false (0)
CCCCCCCCCC[N+](C)(C)[O-] | false (0)
Cc1c(C)c2c(c(C)c1O)CCC(C)(COc1ccc(CC3SC(=O)NC3=O)cc1)O2 (stereo not given) | false (0)
C/C=C/c1ccc(OC)cc1 | false (0)
CCCCC(CC)COP(=O)(OCC(CC)CCCC)OCC(CC)CCCC (stereo not given) | false (0)
COC(=O)CCCC(=O)OC | false (0)
CCCCC(CC)CO (stereo not given) | false (0)
